system: MCF7; experiment: NCI tumour cell line growth inhibition, 48 h
Activity calls are given as the source filed them. Rule as the data show it: active = GI50 up to about 1.1 µM and inactive = higher.
Select the matching outcome among true (1) = active, false (0) = inactive

[[record]]
molecule = "Cc1cc2c(s1)C(=O)c1sccc1C2=O"
qualitative_label = "false (0)"

[[record]]
molecule = "S=c1cc(-c2ccc3c(c2)OCO3)s[nH]1"
qualitative_label = "false (0)"

[[record]]
molecule = "CC(C)(CN1CCCCC1)C(=O)CC(SCCS(=O)(=O)O)c1ccccc1 (stereo not given)"
qualitative_label = "false (0)"


Problem: Called result for Cc1ccc2cc3cccc(C(=O)NCCN(C)C)c3nc2c1
Solution: true (1)

Problem: Another molecule: COC(=O)CCCC(=O)O
Solution: false (0)

Problem: Try this molecule next: CCOC(=O)CSc1[nH]c(NC(=S)Nc2ccccc2)c(C(N)=O)c1C(N)=O
Solution: false (0)

Problem: Can you handle CC(=O)O[C@H]1C(=O)[C@@]2(C)C([C@H](OC(=O)c3ccccc3)[C@]3(O)C[C@H](OC(=O)[C@H](O)[C@@H](NC(=O)c4ccc(Cl)cc4)c4ccccc4)C(C)=C1C3(C)C)C1(OC(C)=O)CO[C@@H]1C[C@@H]2O (stereo not given in full) next?
Solution: true (1)

Problem: Now give it for OC(c1ccccc1)(c1cccnc1)C(O)(c1ccccc1)c1cccnc1 (stereo not given) too.
Solution: false (0)

Problem: Next up: Nc1ccc2nc(-c3cccc(C(F)(F)F)c3)cc(O)c2c1
Solution: false (0)

Problem: Same lookup for OC(CN1CCCCC1)c1ccc(/C=C/c2ccc(Cl)cc2)cc1 (stereo not given) , please.
Solution: false (0)
